Entries and their measured solubility (g/100 g solution) follow.
Experiment: xn = mol fraction of the nth substance listed, in the solute-free solvent
Conditions: 303.15 K; x2 = 0.8

- COMPOUND: "CC(C)C(=O)Nc1ccc([N+](=O)[O-])c(C(F)(F)F)c1 + CC(C)=O + CC(C)O"
  solubility (g/100 g solution): 66.1
- COMPOUND: "Cl.NC1CCSC1=O (centres undefined) + CO + CC#N"
  solubility (g/100 g solution): 8.29
- COMPOUND: "CC(C)C(=O)Nc1ccc([N+](=O)[O-])c(C(F)(F)F)c1 + CCOC(C)=O + CC(C)O"
  solubility (g/100 g solution): 50.9
- COMPOUND: "CC(C)C(=O)Nc1ccc([N+](=O)[O-])c(C(F)(F)F)c1 + C1CCOC1 + CC(C)O"
  solubility (g/100 g solution): 66.4

----------
Experiment: xn = mol fraction of the nth substance listed, in the solute-free solvent
Settings: 323.15 K; x2 = 0.2068
Entries and their measured solubility (g/100 g solution) follow.
PROPERTY MEASURED: solubility (g/100 g solution)

- MOLECULE: "Nc1cc(-c2ccncc2)c[nH]c1=O + CCO + O"
  PROPERTY MEASURED: "solubility (g/100 g solution)"
  MEASUREMENT: 0.0132
- MOLECULE: "CC(C)C(=O)Nc1ccc([N+](=O)[O-])c(C(F)(F)F)c1 + CCO + O"
  PROPERTY MEASURED: "solubility (g/100 g solution)"
  MEASUREMENT: 1.86
- MOLECULE: "O=C1C=CC(=O)N1c1ccccc1Br + CCO + O"
  PROPERTY MEASURED: "solubility (g/100 g solution)"
  MEASUREMENT: 13.3
- MOLECULE: "Nc1ncc(Br)nc1Br + CCO + O"
  PROPERTY MEASURED: "solubility (g/100 g solution)"
  MEASUREMENT: 0.521

----------
Assay: xn = mol fraction of the nth substance listed, in the solute-free solvent
Conditions: 303.15 K; x2 = 0.7

- COMPOUND: "CC(C)C(=O)Nc1ccc([N+](=O)[O-])c(C(F)(F)F)c1 + C1CCOC1 + CC(C)O"
  solubility (g/100 g solution): 64.4
- COMPOUND: "CC(C)C(=O)Nc1ccc([N+](=O)[O-])c(C(F)(F)F)c1 + CCOC(C)=O + CC(C)O"
  solubility (g/100 g solution): 50.3
- COMPOUND: "Cl.NC1CCSC1=O (centres undefined) + CO + CC#N"
  solubility (g/100 g solution): 6.97
- COMPOUND: "CC(C)C(=O)Nc1ccc([N+](=O)[O-])c(C(F)(F)F)c1 + CC(C)=O + CC(C)O"
  solubility (g/100 g solution): 64

----------
Test: xn = mol fraction of the nth substance listed, in the solute-free solvent
Settings: 303.15 K; x2 = 0.7297

- COMPOUND: "CC(C)C(=O)Nc1ccc([N+](=O)[O-])c(C(F)(F)F)c1 + CC(C)O + O"
  solubility (g/100 g solution): 30.4
- COMPOUND: "Nc1ncc(Br)nc1Br + CC(C)O + O"
  solubility (g/100 g solution): 0.432
- COMPOUND: "O=c1cc(CBr)c2ccccc2[nH]1 + CC(C)O + O"
  solubility (g/100 g solution): 0.124
- COMPOUND: "O=C1C=CC(=O)N1c1ccccc1Br + CC(C)O + O"
  solubility (g/100 g solution): 9.28
- COMPOUND: "O=c1cc(CBr)c2ccccc2[nH]1 + CCCO + O"
  solubility (g/100 g solution): 0.166
